Measured values drawn from patent US20160137639A1 for this set.

target: mouse RORγ (Mus musculus, UniProt P51450); construct: mouse, NM_011281.2 and from Ile251 to Lys516; expressed in transfected cells; host or cells: CHO cells (transient co-transfection with pG5-Luc reporter); assay: Luciferase reporter gene assay of inhibitory effect against RORγ transcriptional activity (GAL4-mRORγ plasmid in CHO cells); format: cell-based; conditions: read-out: LUC EC50 mRORg
Sequence (P51450 251-516): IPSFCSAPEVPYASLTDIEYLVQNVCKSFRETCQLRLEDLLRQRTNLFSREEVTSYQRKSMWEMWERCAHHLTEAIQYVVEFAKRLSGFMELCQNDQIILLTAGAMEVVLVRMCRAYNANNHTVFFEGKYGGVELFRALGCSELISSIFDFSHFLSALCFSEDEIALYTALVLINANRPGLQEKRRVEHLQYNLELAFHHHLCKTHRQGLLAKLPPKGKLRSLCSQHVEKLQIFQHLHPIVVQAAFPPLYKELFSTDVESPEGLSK
pEC50: −log10 of the molar value.
assay_readout: pEC50

Reference set, count: 3
compound=Cc1ccc(NC(=O)C[C@H](C[C@@H](C)O)c2nnc([C@H]3C[C@@H](CC(C)C)C3)n2C2CC2)c(C)c1 target_or_system="mouse RORγ (Mus musculus, UniProt P51450)" assay_readout=pEC50 recorded_result="> 5.52"
compound=Cc1cc(Cl)ccc1NC(=O)C[C@H](CC(C)C)c1nnc(-c2cc(CC(C)(C)C)on2)n1C1CC1 target_or_system="mouse RORγ (Mus musculus, UniProt P51450)" assay_readout=pEC50 recorded_result="> 5.52"
compound=CC(C)(C)C[C@H]1C[C@@H](c2noc([C@@H](CCC(=O)O)CC(=O)Nc3ccc(Cl)cc3Cl)c2C2CC2)C1 target_or_system="mouse RORγ (Mus musculus, UniProt P51450)" assay_readout=pEC50 recorded_result="> 5.52"

Query the reported pEC50 for mouse RORγ (Mus musculus, UniProt P51450); item: Cc1ccc(NC(=O)CCc2noc(C3(CCO)CC(CC(C)(C)C)C3)c2C2CC2)c(Cl)c1 (mixture of isomers)
< 5.52
